The origin of these recorded values is patent US5319139A.

tested on: LTB4 production from human neutrophil; assay: Activity against LTB4 production from human neutrophil; assay type: cell-based; settings: human peripheral blood neutrophils, preincubated 37° C. 5 minutes, calcium ionophore A23187 2 μg/ml, 10 minutes, radioimmunoassay, read-out: Inhibitory activity against LTB4 production from human neutrophil IC50
Endpoint: pIC50
pIC50 (log units): -log10 of the concentration in mol/L.

Lab request: please report pIC50 under test system LTB4 production from human neutrophil for CCC/C=C(\C(=O)O)c1cc(OC)c(O)c2c(Cc3ccccc3)cccc12 [Example 3] 6.28

Lab request: please report pIC50 under test system LTB4 production from human neutrophil for COc1cc(/C(=C/C2CCCCC2)C(=O)O)c2cccc(Cc3ccccc3)c2c1O [Example 12] 5.00

Lab request: please report pIC50 under test system LTB4 production from human neutrophil for COc1cc(C(C(=O)O)=C(Cl)Cl)c2cccc(Cc3ccccc3)c2c1O [Example 55] 5.63

Lab request: please report pIC50 under test system LTB4 production from human neutrophil for C=C(C(=O)O)c1cc(OC)c(O)c2c(Cc3ccccc3)cccc12 [Example 14] 6.14

Lab request: please report pIC50 under test system LTB4 production from human neutrophil for COc1cc(/C(=C/C(C)C)C(=O)O)c2cccc(Cc3ccccc3)c2c1O [Example 4] 5.77

* * *

test system: LTB4 production from human neutrophil; test: Activity against LTB4 production from human neutrophil; assay type: cell-based; settings: human peripheral blood neutrophils, preincubated 37° C. 5 minutes, calcium ionophore A23187 2 μg/ml, 10 minutes, radioimmunoassay, read-out: Inhibitory activity against LTB4 production from human neutrophil IC50
Endpoint: IC50 (nM)
// return numeric value only (unit: nM, not printed)

IC50 lookup needed for C=CC/C=C(\C(=O)O)c1cc(OC)c(O)c2c(Cc3ccccc3)cccc12 , thanks. 510

IC50 lookup needed for C/C=C(/C(=O)O)c1cc(OC)c(O)c2c(Cc3ccccc3)cccc12 , thanks. 3160

IC50 lookup needed for COc1cc(C(C(=O)O)=C(C)C)c2cccc(Cc3ccccc3)c2c1O , thanks. 730

IC50 lookup needed for COc1cc(/C(=C/C(C)(C)C)C(=O)O)c2cccc(Cc3ccccc3)c2c1O , thanks. 830

IC50 lookup needed for C/C=C(\C(=O)O)c1cc(OC)c(O)c2c(Cc3ccccc3)cccc12 , thanks. 510

IC50 lookup needed for COc1cc(/C(=C/c2ccccc2)C(=O)O)c2cccc(Cc3ccccc3)c2c1O , thanks. 1860

IC50 lookup needed for CC/C=C(\C(=O)O)c1cc(OC)c(O)c2c(Cc3ccccc3)cccc12 , thanks. 320

IC50 lookup needed for COc1cc(/C(=C/Cc2ccccc2)C(=O)O)c2cccc(Cc3ccccc3)c2c1O , thanks. 1090
